Species on record: Homo sapiens
EXPERIMENT SUMMARY: Selectivity ratio of Ki for kappa opioid receptor (unknown origin) to Ki for mu opioid receptor (unknown origin)
Rule: Ratio Ki of 0.07 or more gives yes (1); anything lower gives no (0).

These solved cases illustrate the format of a correct answer.
{"CHEM SMILES": "O=C(N[C@@]12CCC(=O)[C@@H]3Oc4c(O)ccc5c4[C@@]31CCN(CC1CC1)[C@@H]2C5)c1ccccc1", "ANSWER LABEL": "no (0)"}
{"CHEM SMILES": "O=C(N[C@@]12CCC(=O)[C@@H]3Oc4c(O)ccc5c4[C@@]31CCN(CC1CC1)[C@@H]2C5)c1ccncc1", "ANSWER LABEL": "yes (1)"}
{"CHEM SMILES": "O=C(N[C@@]12CCC(=O)[C@@H]3Oc4c(O)ccc5c4[C@@]31CCN(CC1CC1)[C@@H]2C5)c1ccc2ccccc2c1", "ANSWER LABEL": "no (0)"}
{"CHEM SMILES": "O=C(N[C@@]12CCC(=O)[C@@H]3Oc4c(O)ccc5c4[C@@]31CCN(CC1CC1)[C@@H]2C5)c1ccccn1", "ANSWER LABEL": "yes (1)"}
{"CHEM SMILES": "O=C(N[C@@]12CCC(=O)[C@@H]3Oc4c(O)ccc5c4[C@@]31CCN(CC1CC1)[C@@H]2C5)c1cnc2ccccc2c1", "ANSWER LABEL": "yes (1)"}
{"CHEM SMILES": "O=C(N[C@@]12CCC(=O)[C@@H]3Oc4c(O)ccc5c4[C@@]31CCN(CC1CC1)[C@@H]2C5)c1cccnc1", "ANSWER LABEL": "yes (1)"}
{"CHEM SMILES": "COc1cccc2c1[C@]13CCN(CC4CC4)[C@H](C2)[C@]1(OC)CCC(=O)C3", "ANSWER LABEL": "yes (1)"}

[Q] Evaluate O=C(N[C@@]12CCC(=O)[C@@H]3Oc4c(O)ccc5c4[C@@]31CCN(CC1CC1)[C@@H]2C5)c1ccc2ccccc2n1 : Ratio Ki at minimum 0.07?
[A] no (0)
